- target under test: Cdk1/Cyclin B (Homo sapiens)
- Sequence (P06493 whole entry): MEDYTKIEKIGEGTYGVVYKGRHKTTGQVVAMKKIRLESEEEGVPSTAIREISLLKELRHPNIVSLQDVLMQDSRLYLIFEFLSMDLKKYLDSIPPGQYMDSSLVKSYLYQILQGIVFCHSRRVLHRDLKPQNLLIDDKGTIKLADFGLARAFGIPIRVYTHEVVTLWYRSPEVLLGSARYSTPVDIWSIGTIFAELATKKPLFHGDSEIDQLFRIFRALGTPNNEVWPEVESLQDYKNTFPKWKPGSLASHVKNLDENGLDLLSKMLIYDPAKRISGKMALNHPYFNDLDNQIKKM
- Sequence (P14635 whole entry partner): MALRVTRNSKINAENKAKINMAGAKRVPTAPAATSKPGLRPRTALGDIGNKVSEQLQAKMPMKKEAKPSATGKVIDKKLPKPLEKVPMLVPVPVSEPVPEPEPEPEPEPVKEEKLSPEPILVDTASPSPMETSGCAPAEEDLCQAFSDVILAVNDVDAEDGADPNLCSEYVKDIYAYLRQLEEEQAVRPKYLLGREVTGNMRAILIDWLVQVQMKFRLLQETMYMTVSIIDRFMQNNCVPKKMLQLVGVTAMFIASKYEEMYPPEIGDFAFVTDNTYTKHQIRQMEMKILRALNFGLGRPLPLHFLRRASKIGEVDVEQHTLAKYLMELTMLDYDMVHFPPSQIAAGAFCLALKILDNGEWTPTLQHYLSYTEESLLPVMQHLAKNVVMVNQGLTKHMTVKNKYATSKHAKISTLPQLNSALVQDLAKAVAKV
- assay protocol: Cdk1/Cyclin B inhibitory activity, Z'-LYTE Kinase Assay
- condition notes: ATP 10 μM; 8 concentrations of 0.01-25 μM
test readout: IC50

In the examples that follow, each entry is paired with its recorded IC50.
O=c1cc(-c2ccccc2)oc2c(CN3CCNCC3)c(O)c(O)c(O)c12 | 0.28 µM
COc1c(O)c(CN2CCNCC2)c(O)c2c(=O)cc(-c3ccccc3)oc12 | 6.62 µM
CN1CCN(Cc2c(O)c(O)c(O)c3c(=O)cc(-c4ccccc4)oc23)CC1 | 0.29 µM

Field: next compound
In plain terms, COc1c(O)c(CN2CCC(O)CC2)c(O)c2c(=O)cc(-c3ccccc3)oc12 [Hydroxypiperidine Wogonin] has a documented IC50 of 6.91 µM
